# Test system: Salmonella typhimurium IID 971
# Protocol: Antibacterial activity (MIC), Salmonella typhimurium IID 971
# Type: cell-based
# Protocol Conditions: Salmonella enterica; Salmonella typhimurium IID 971, Gram -; read-out: Minimum inhibitory concentration (MIC)
Reported Property: MIC (µg/mL)
Respond numerically; units are µg/mL and should not be typed.

Answered examples (5):
>  <Compound>
CC1CN(c2c(F)cc3c(=O)c(C(=O)O)c4scc5n4c3c2N(C)C5)CC(C)N1 (stereo not drawn) [Compound (E)]

>  <Result>
0.1

$$$$
>  <Compound>
CN1Cc2csc3c(C(=O)O)c(=O)c4cc(F)c(N5CCC(N)C5)c1c4n23 (stereo not drawn)

>  <Result>
0.05

$$$$
>  <Compound>
CN1Cc2csc3c(C(=O)O)c(=O)c4cc(F)c(N5CCN(O)CC5)c1c4n23

>  <Result>
0.1

$$$$
>  <Compound>
CN1Cc2csc3c(C(=O)O)c(=O)c4cc(F)c(N5CCCC5)c1c4n23

>  <Result>
0.2

$$$$
>  <Compound>
CC1CN(c2c(F)cc3c(=O)c(C(=O)O)c4scc5n4c3c2N(C)C5)CC(C)N1C (stereo not drawn)

>  <Result>
0.39

$$$$

Now, please, on to the next compound.
input: Can you share its MIC? I mean this compound: CC1CN(c2c(F)cc3c(=O)c(C(=O)O)c4scc5n4c3c2N(C)C5)CCN1C (stereo not drawn)
output: 0.2

====

# Test system: Staphylococcus aureus IID 803
# Protocol: Effect on treatment of general infectious disease, S. aureus IID 803 (Experiment 3)
# Type: in vivo, ddY male mice infected with Staphylococcus aureus
# Protocol Conditions: IID803, 168 h, oral, 1 h after i.p. infection, 5.0×10^7 CFU/mouse, survival after one week
# Experimental: Staphylococcus aureus IID 803 (5.0×10^7 CFU/mouse) The test microorganisms were subjected to standing culture in Trypto-Soya Agar "Nissui" (made by Nissui Seiyaku K.K., Japan) at 37° C. for 16 to 18 hours. The culture was then diluted with PBS (Dulbecco's phosphate buffered saline) and mixed with an equivalent amount of 10% (w/v) Mucin (BACTO MUCIN BACTERIOLOGICAL, made by Difco Co.) to prepare a microorganism solution. […]
Where a name gives a salt, the structure may show the parent alone.
We begin with a simple list: items and their reported ED50.
Use mg/kg as the unit, but write only the number.

See these solved cases before continuing.
>  <Compound>
CN1CCN(c2c(F)cc3c(=O)c(C(=O)O)c4scc5n4c3c2N(C)C5)CC1

>  <Target Of Assay>
Staphylococcus aureus IID 803

>  <ED50 (mg/kg)>
5.8

$$$$
>  <Compound>
CN1CCN(c2c(F)cc3c(=O)c(C(=O)O)c4scc5n4c3c2OC5)CC1 [Compound (Y), hydrochloride, reference compound]

>  <Target Of Assay>
Staphylococcus aureus IID 803

>  <ED50 (mg/kg)>
11.7

$$$$
>  <Compound>
CCN1CCN(c2c(F)cc3c(=O)c(C(=O)O)c4scc5n4c3c2N(C)C5)CC1

>  <Target Of Assay>
Staphylococcus aureus IID 803

>  <ED50 (mg/kg)>
5.8

$$$$

We next turn to a different compound, shown below.
input: For the compound shown here, CC1COc2c(N3CCN(C)CC3)c(F)cc3c(=O)c(C(=O)O)cn1c23 (stereo not shown) [Compound (X), reference compound] , give the reported ED50.
output: 14

Just for reference, patent US4971967A is where these values come from.
